TESTED_TARGET: T1, PSMA Fab
T1 construct: also called Anti-PSMA Fab; 006 PSMA Fab
PROCEDURE_DETAILS: phage ELISA; biotinylated PSMA Fab on neutravidin plate pre-incubated with PSMA antigen as competitor, anti-M13 HRP detection;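 note: crude clonal phage supernatants tested, compared against control wells pre-incubated with blocking buffer only, without PSMA antigen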
READOUT_TYPE: Phage binding ELISA signal, Anti-PSMA Fab in the presence of PSMA antigen

1) ITPWCIPPWMCPGP (Peptide-180 library clone, tested as clonal phage supernatant) [Phage-2361] ... 0.0746
2) QVQWCIPPWMCLED (Peptide-180 library clone, tested as clonal phage supernatant) [Phage-2372] ... 0.0887
3) LEKWCIPSWMCSTL (Peptide-180 library clone, tested as clonal phage supernatant) [Phage-2370] ... 0.0829
4) VDKWCIPSWMCEFY (Peptide-180 library clone, tested as clonal phage supernatant) [Phage-2371] ... 0.0767
5) AERWCIPDWMCNVI (Peptide-180 library clone, tested as clonal phage supernatant) [Phage-2363] ... 0.0567
6) EEKMCKPSWMCQLF (Peptide-180 library clone, tested as clonal phage supernatant) [Phage-2362] ... 0.09
7) GLGWCTPTWMCEGF (Peptide-180 library clone, tested as clonal phage supernatant) [Phage-2369] ... 0.0727
8) GANLCIPPWMCLSS (Peptide-180 library clone, tested as clonal phage supernatant) [Phage-2364] ... 0.0789
9) AEKLCKPAWMCNNM (Peptide-180 library clone, tested as clonal phage supernatant) [Phage-2365] ... 0.0752
10) YEKWCIPAWMCHVA (Peptide-180 library clone, tested as clonal phage supernatant) [Phage-2367] ... 0.0747
